Below, each entry is listed with its recorded α-human koff.
# Tgt: T1, human α-CGRP (Homo sapiens, UniProt P06881)
# T1 construct: 1-37 (WT); purchased GenScript Corporation or Global Peptide Services
# T1 sequence (P06881 83-119 limits assumed): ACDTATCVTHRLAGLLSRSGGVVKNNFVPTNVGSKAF
# Assay Info: Biacore SPR affinity of Fab fragments to N-biotinylated human α-CGRP on SA chip
# Type: binding
# Experimental Context: 37° C., screening mode except underlined values
# Procedure: Affinity determination of the Fabs. Affinities of the anti-CGRP monoclonal antibodies were determined at either 25° C. or 37° C. using the BIACORE3000™ surface plasmon resonance (SPR) system (Biacore, INC, Piscataway N.J.) with the manufacture's own running buffer, HBS-EP (10 mM HEPES pH 7.4, 150 mM NaCl, 3 mM EDTA, 0.005% v/v polysorbate P20). […] Global equilibrium dissociation constants (KD) or “affinities” were calculated from the ratio KD=koff/kon. […]
Provide the reading as a plain figure in s⁻¹.

The examples below pair each entry with its known result.
Notebook: M75: G1 variant; L1 R28N T30G; L2 L56S; H2 E54K A57V; HC-FW3 L99T A100V (antibody, V domains shown) VH: EVQLVESGGGLVQPGGSLRLSCAASGFTFSNYWISWVRQAPGKGLEWVAEIRSKSDVSATHYAEAVKGRFTISRDNAKNSLYLQMNSLRAEDTAVYYCTVYFDYGLAIQNYWGQGTLVTVSS VL: EIVLTQSPATLSLSPGERATLSCKASKNVGTYVSWYQQKPGQAPRLLIYGASNRYSGIPARFSGSGSGTDFTLTISSLEPEDFAVYYCSQSYNYPYTFGQGTKLEIK , α-human koff read as 0.00116

Looking up M84: G1 variant; L1 R28N T30V; L2 A51H L56T; H2 E54N A57N; HC-FW3 L99T A100V (antibody, V domains shown) VH: EVQLVESGGGLVQPGGSLRLSCAASGFTFSNYWISWVRQAPGKGLEWVAEIRSNSDNSATHYAEAVKGRFTISRDNAKNSLYLQMNSLRAEDTAVYYCTVYFDYGLAIQNYWGQGTLVTVSS VL: EIVLTQSPATLSLSPGERATLSCKASKNVVTYVSWYQQKPGQAPRLLIYGHSNRYTGIPARFSGSGSGTDFTLTISSLEPEDFAVYYCSQSYNYPYTFGQGTKLEIK , I see its α-human koff listed as 0.00108

Reported α-human koff ( M78: G1 variant; L1 R28N T30S; L2 G50A L56T; H2 E54K A57N S58T; HC-FW3 L99T A100V (antibody, V domains shown) VH: EVQLVESGGGLVQPGGSLRLSCAASGFTFSNYWISWVRQAPGKGLEWVAEIRSKSDNTATHYAEAVKGRFTISRDNAKNSLYLQMNSLRAEDTAVYYCTVYFDYGLAIQNYWGQGTLVTVSS VL: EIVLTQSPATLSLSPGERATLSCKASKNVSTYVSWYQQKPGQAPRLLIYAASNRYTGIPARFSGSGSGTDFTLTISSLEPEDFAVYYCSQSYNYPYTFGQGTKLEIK ) = 0.00131

More entries:
Reported α-human koff of M49: G1 variant; L1 R28N; L2 G50A L56T; H2 E54K A57N S58Y H61F; HC-FW3 L99T A100V (antibody, V domains shown) VH: EVQLVESGGGLVQPGGSLRLSCAASGFTFSNYWISWVRQAPGKGLEWVAEIRSKSDNYATFYAEAVKGRFTISRDNAKNSLYLQMNSLRAEDTAVYYCTVYFDYGLAIQNYWGQGTLVTVSS VL: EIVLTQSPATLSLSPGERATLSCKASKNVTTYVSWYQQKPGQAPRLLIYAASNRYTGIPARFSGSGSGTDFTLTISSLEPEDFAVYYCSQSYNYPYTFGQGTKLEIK : 0.000595
